// provenance: PubChem BioAssay AID588342

target: Luciferin 4-monooxygenase (Photinus pyralis) (UniProt P08659); experiment: qHTS profiling assay for firefly luciferase inhibitor/activator using purifed enzyme and Km concentrations of substrates (counterscreen for miR-21 project); settings: purified FLuc, luminescence inhibition; series mostly up to 57.5 µM; further: nearly all actives have a fitted effect of over 55% in size
Sequence (P08659 whole entry, looked up): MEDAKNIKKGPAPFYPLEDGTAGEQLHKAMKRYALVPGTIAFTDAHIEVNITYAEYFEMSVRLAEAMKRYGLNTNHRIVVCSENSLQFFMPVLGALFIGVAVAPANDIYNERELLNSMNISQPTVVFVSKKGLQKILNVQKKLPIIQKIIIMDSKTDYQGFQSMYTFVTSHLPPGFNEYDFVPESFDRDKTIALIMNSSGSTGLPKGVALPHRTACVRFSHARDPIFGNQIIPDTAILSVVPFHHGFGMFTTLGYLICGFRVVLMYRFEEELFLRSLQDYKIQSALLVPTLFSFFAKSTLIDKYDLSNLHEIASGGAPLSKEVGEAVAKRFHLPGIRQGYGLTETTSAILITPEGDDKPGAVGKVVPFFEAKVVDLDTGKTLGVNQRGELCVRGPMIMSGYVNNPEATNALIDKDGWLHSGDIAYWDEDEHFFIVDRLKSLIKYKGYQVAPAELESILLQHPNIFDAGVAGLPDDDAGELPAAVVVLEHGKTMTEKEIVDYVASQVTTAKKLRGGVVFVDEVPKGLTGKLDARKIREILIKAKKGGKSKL
Among all 360,000 compounds or so, about 25,000 (6.9%) were called active. Not shown: some 9% with an inconclusive outcome. The call rests on the fitted dose curve; in most records, active means well fitted inhibition curve with a large enough effect; inconclusive means small, poorly fitted or top-dose-only effect; inactive means flat fitted curve, though single readings scatter. This excerpt belongs to a sample that is enriched for actives.
Form entry, call: pick from label 1 (active), label 0 (inactive)

Input: Give the logged outcome of this assay for the following compound: COc1ccc(-c2cc(=O)oc3cc(OCC(=O)N(C)C4CCS(=O)(=O)C4)ccc23)cc1 (configuration not stated)
Output: label 0

Input: Give the logged outcome of this assay for the following compound: CC(C)(C)c1nc2ccccc2c(=O)n1N1C(=O)c2ccccc2C1=O
Output: label 0

Input: Give the logged outcome of this assay for the following compound: CC(C)(C)N1CC(c2nc3ccccc3n2Cc2ccc(F)cc2)CC1=O (configuration not stated)
Output: label 0

Input: Give the logged outcome of this assay for the following compound: CCOc1cccc2c1OC1(CCCCC1)N1N=C(c3cccnc3)CC21 (configuration not stated)
Output: label 1

Input: Give the logged outcome of this assay for the following compound: Cc1cnc(NC(=O)c2ccccn2)s1
Output: label 1

Input: Give the logged outcome of this assay for the following compound: COc1cccc(/C=C2/SC(=S)N(CC(=O)NC3C=CS(=O)(=O)C3)C2=O)c1 (configuration not stated)
Output: label 1

Input: Give the logged outcome of this assay for the following compound: COc1ccccc1CCC(=O)NNC(=O)c1ccncc1
Output: label 0

Input: Give the logged outcome of this assay for the following compound: CC(=O)COc1ccc2c(-c3ccccc3)cc(=O)oc2c1
Output: label 1

Input: Give the logged outcome of this assay for the following compound: Cc1cnc(NC(=O)CSc2nnc(C)s2)s1
Output: label 0

Input: Give the logged outcome of this assay for the following compound: COc1ccc(NS(=O)(=O)c2cccc3nsnc23)cc1Cl
Output: label 0

Input: Give the logged outcome of this assay for the following compound: Cc1cnc(NC(=O)C2CCCC2)s1
Output: label 0

Input: Give the logged outcome of this assay for the following compound: O=C(CN1C(=O)S/C(=C\c2ccccc2Cl)C1=O)NC1C=CS(=O)(=O)C1 (configuration not stated)
Output: label 0

* * *

target: Luciferin 4-monooxygenase (Photinus pyralis); test: qHTS profiling assay for firefly luciferase inhibitor/activator using purifed enzyme and Km concentrations of substrates (counterscreen for miR-21 project); conditions: purified FLuc, luminescence inhibition; series mostly up to 57.5 µM; further: nearly all actives have a fitted effect of over 55% in size
Out of some 360,000 compounds screened, about 25,000 (6.9%) were called active. Roughly 9% stayed inconclusive and do not appear here. The call rests on the fitted dose curve; in most records, active means well fitted inhibition curve with a large enough effect; inconclusive means small, poorly fitted or top-dose-only effect; inactive means flat fitted curve, though single readings scatter. The entries come from a sample that favours actives as a whole.
Form entry, call: pick from Y = active, N = inactive

Input: Give the logged outcome of this assay for the following compound: Cc1ccc(Cn2ccc(NC(=O)C3C4CCC(C4)C3C(=O)O)n2)cc1 (configuration not stated)
Output: N

Input: Give the logged outcome of this assay for the following compound: COc1ccc(-n2nnnc2CNC(=O)c2ccc3ccccc3c2)cc1
Output: N

Input: Give the logged outcome of this assay for the following compound: CCn1c(=O)c(=O)n(CC)c2cc(N3CCCCC3)c(NC(=O)c3cccc(F)c3)cc21
Output: N

Input: Give the logged outcome of this assay for the following compound: Cc1ccc(O)c(NC(=O)COc2cc(C)ccc2C)c1
Output: N

Input: Give the logged outcome of this assay for the following compound: COc1ccccc1/C=N/N1CCN(Cc2ccccc2Cl)CC1
Output: N

Input: Give the logged outcome of this assay for the following compound: CS/C(=C\C(=O)c1ccco1)Nc1ccccc1Cl
Output: Y
